Source listed as ChEMBL document CHEMBL1201862.

System: UO-31
protocolNotes: NCI tumour cell line growth inhibition, 48 h
Active and inactive are the calls of the source. Cut-off read from the data, not from the text of the source: active = GI50 up to about 1.1 µM and inactive = higher.
reportedProperty: GI50

Query :: # query: GI50 of entry CC1CC/C(=C\c2ccc(F)cc2)C(=O)/C1=C/c1ccc(F)cc1 (stereo not given)
Result :: 11.1 µM (inactive)

Query :: Similarly, OC(c1ccccc1)C1CC2C=CC1C2 (stereo not given) ?
Result :: > 100 µM (inactive)

Query :: Repeat for the following compound: Fc1ccc(/N=C2C=C/C(=N\c3ccc(F)cc3)c3ccccc3\2)cc1
Result :: > 100 µM (inactive)

Query :: And the next one, COc1cc(-c2ccccc2)cn2c1nc1ccccc12 ?
Result :: 14.8 µM (inactive)

Query :: Next up: Oc1cccc(/C=N/N=c2/[nH][nH]/c(=N/N=C/c3cccc(O)c3)c3ccccc23)c1
Result :: 15 µM (inactive)

Query :: Same lookup for CC(SC(=S)N1CCCC1)C(=O)Nc1nnc(-c2ccc(Cl)cc2)o1 (stereo not given) , please.
Result :: 19.2 µM (inactive)

Query :: Would you mind doing CCN(CC)CCO/N=C1/C=C2CCC3C(CC[C@@]4(C)C3CC[C@]4(C)O)[C@@]2(C)CC1 (stereo not given in full) as well?
Result :: 5.41 µM (inactive)

Query :: Same lookup for COc1ccc(C(C)NNC(=O)c2cc[n+]([BH2-]C#N)cc2)cc1F (stereo not given) , please.
Result :: > 100 µM (inactive)

Query :: Now the compound CCOC(=O)N1CC2(C)C=CC1C(C(=O)OC)C2 (stereo not given)
Result :: > 100 µM (inactive)

Query :: // same read-out, input: COc1ccc([C@H]2CC(=O)C[C@H](c3ccc(OC)cc3)C23C(=O)c2ccccc2C3=O)cc1
Result :: 17.3 µM (inactive)

====

Test system: SNB-78
protocolNotes: NCI tumour cell line growth inhibition, 48 h
Active and inactive are the calls of the source. No stated cut-off is given here; in the data, active = GI50 up to about 1.1 µM and inactive = higher.
reportedProperty: GI50

Query :: Entry COC(=O)C1[C@H](c2ccc3c(c2)OCO3)OC(=O)[C@]1(C(=O)OC)C(=O)c1ccc(OC)c(OC)c1 (stereo not given in full) : reported GI50 = ?
Result :: 56.8 µM (inactive)

Query :: Let us now turn to N#CCCN(CCC#N)C(=O)c1cccc(C(=O)N(CCC#N)CCC#N)c1
Result :: > 100 µM (inactive)

Query :: Another compound to look at: Cc1ccc(NC(=O)CC2Sc3ccccc3NC2=O)cc1C (stereo not given)
Result :: > 100 µM (inactive)

Query :: Try this compound next: O=S1(=O)OCCOS(=O)(=O)C1Br
Result :: > 100 µM (inactive)

Query :: What do you have for COc1cc(Br)c(/C=N\c2cccc3cc(OC)c(OC)cc23)cc1OC ?
Result :: 55.8 µM (inactive)

Query :: Entry to check: Cc1cc(C)c2c(c1)CSCc1cc(C)cc(C)c1-2
Result :: 25.1 µM (inactive)

Query :: Then what about the compound C#CC[C@]12CC(=O)CC[C@H]1CC1(C2)OCCO1 ?
Result :: > 100 µM (inactive)

Query :: Field entry: COC(=O)CCC(=O)Nc1ccc(Cl)cc1C
Result :: 98.4 µM (inactive)

Query :: What do you get for Fc1ccc(/N=C2C=C/C(=N\c3ccc(F)cc3)c3ccccc3\2)cc1 ?
Result :: > 100 µM (inactive)

Query :: And then CC(C)C1CC(O)O[C@@H]([C@@H](C)[C@H]2CC(=O)[C@@H]3[C@@H]4[C@@H](O)[C@H](O)[C@H]5[C@@H](O)[C@H](O)CC[C@]5(C)[C@H]4CC[C@]23C)C1 (stereo not given in full) , what is it?
Result :: 38.9 µM (inactive)
